tested on: 786-0; experiment: NCI tumour cell line growth inhibition, 48 h
Activity calls are given as the source filed them. Cut-off read from the data, not from the text of the source: active = GI50 up to about 1.1 µM and inactive = higher.
# GI50 listing for each entry below
measurementName: GI50

>>> result("CC(C)CC(NC(=O)C(O)C(N)Cc1ccccc1)C(=O)O (stereo not drawn)")
"> 100 µM (inactive)"
>>> result("CN(C)CCCCN1c2ccccc2Sc2ccc(N=[N+]=[N-])cc21")
"8.69 µM (inactive)"
>>> result("Cn1cnc([N+](=O)[O-])c1Sc1nc2cc([N+](=O)[O-])ccc2[nH]1")
"42.4 µM (inactive)"

---

# GI50 listing for each entry below
system: HCT-116; experiment: NCI tumour cell line growth inhibition, 48 h
Activity calls are given as the source filed them. Cut-off read from the data, not from the text of the source: active = GI50 up to about 1.1 µM and inactive = higher.
measurementName: GI50

>>> result("CCC1=CCN(c2cc(C)ccn2)OC1c1ccc(OC)cc1 (stereo not given)")
"21.2 µM (inactive)"
>>> result("O=c1c2sc3ccccc3sc=2c(=O)c2c(Cl)c(Cl)c(Cl)c(Cl)c12")
"> 100 µM (inactive)"
>>> result("CCCCC1Cc2cc(O)ccc2-c2nc3cc(O)ccc3n21.CCCCC1Cc2cc(O)ccc2-c2nc3ccc(O)cc3n21 (stereo not given)")
"14 µM (inactive)"
>>> result("C=CC[C@H]1C[C@@]2(C)OC[C@H](C(C)C)N2C1=O")
"> 100 µM (inactive)"
>>> result("CC(=S)N/C=C1/C(=O)C=C(C)OC1=O")
"> 100 µM (inactive)"

---

# GI50 listing for each entry below
system: MDA-MB-435; test: NCI tumour cell line growth inhibition, 48 h
The source made the active and inactive calls. Rule as the data show it: active = GI50 up to about 1.1 µM and inactive = higher.
measurementName: GI50

>>> result("C(=N\\c1ccc2c(c1)Cc1ccccc1-2)/c1ccccn1")
"77.8 µM (inactive)"
>>> result("CCOC(=O)C1(C(=O)OCC)[C@H](c2ccccc2)C2=NO[C@@H]3CCC[C@H]1[C@H]23")
"21.4 µM (inactive)"
>>> result("CN(C)CCNC(=O)Cn1cc([N+](=O)[O-])c(=O)c2ccccc21")
"> 100 µM (inactive)"
>>> result("Cc1c2ccccc2cc2nc3ccccc3n12")
"> 10 µM (inactive)"
>>> result("COc1ccn(CC(=O)c2cc3ccccc3[nH]2)c(=O)n1")
"> 100 µM (inactive)"
>>> result("CC(=O)NC(CCCOC(C)=O)C(=O)NC(CCCOC(C)=O)C(=O)NC(CCCOC(C)=O)C(=O)NC(Cc1ccc([N+](=O)[O-])cc1)C(=O)NCC(=O)OCc1ccccc1 (stereo unspecified)")
"> 100 µM (inactive)"
>>> result("CC(=O)Oc1c2oc3ccc(Cl)cc3c(=O)c2c(O)c2ccsc12")
"> 100 µM (inactive)"
>>> result("O=C(Cn1cc(Br)c(=O)[nH]c1=O)c1ccc(-c2ccccc2)cc1")
"> 16.8 µM (inactive)"
>>> result("CCSc1ncnc2c(C3OC(CO)C(O)C3O)nsc12 (stereo unspecified)")
"> 100 µM (inactive)"
>>> result("C1COCCN1.S=C(S)N1CCOCC1")
"> 100 µM (inactive)"
>>> result("CC12CC(c3ccccc3O1)C(C(=O)Nc1nccs1)C(=O)N2 (stereo unspecified)")
"> 100 µM (inactive)"

---

tested on: CAKI-1; test: NCI tumour cell line growth inhibition, 48 h
Active and inactive are the calls of the source. No stated cut-off is given here; in the data, active = GI50 up to about 1.1 µM and inactive = higher.
Classes used: T (active), F (inactive)

>>> classassignment("CCOC(=O)CC(c1ccccc1)C(C)(C(=O)OCC)C(=O)OCC (configuration not stated)")
"F"
>>> classassignment("N=C(N)NS(=O)(=O)c1ccc(Nc2c3ccccc3nc3c(C(=O)NCCO)cccc23)cc1")
"T"
>>> classassignment("O=C(Nc1ccc(Cl)c(C(F)(F)F)c1)C(=O)c1c(O)c2ccccc2oc1=O")
"F"
>>> classassignment("CCCCSCC(NC(=O)/C=C/c1c(C)[nH]c(=O)[nH]c1=O)C(=O)OC (configuration not stated)")
"F"
>>> classassignment("O=C1Nc2cccc(Cl)c2/C1=C\\c1cccnc1")
"F"
>>> classassignment("COc1ccc(C(=O)c2[nH]c(Nc3ccc(Cl)cc3)c(C(=S)Nc3ccccc3)c2N)cc1")
"F"
>>> classassignment("Nc1c2ccccc2nc2ccc(C(=O)Nc3ccc(S(N)(=O)=O)cc3)cc12")
"F"
>>> classassignment("Cc1ccc(N/C(SCc2ccccc2)=C(\\C(Cl)=C(Cl)Cl)[N+](=O)[O-])c(C)c1")
"F"
>>> classassignment("c1ccc(C2C(=P(c3ccccc3)(c3ccccc3)c3ccccc3)P=PC2[P+](c2ccccc2)(c2ccccc2)c2ccccc2)cc1.c1ccc([B-](c2ccccc2)(c2ccccc2)c2ccccc2)cc1 (configuration not stated)")
"F"
>>> classassignment("CC(=O)O[C@H]1[C@H](OC(=O)CC(C)(O)CC(=O)O)C[C@]2(C)C3=C(CCC2C1(C)C)[C@]1(C)CC[C@H]([C@H]2CC[C@H](C(C)(C)O)OC2O)[C@@]1(C)[C@@H](O)C3 (some centres not stated)")
"F"
>>> classassignment("C[N+]1([O-])CCC(O)(C2CC2)CC1 (configuration not stated)")
"F"
>>> classassignment("COc1ccc(C(c2cc(OC)c(OC)c(OC)c2)N2C(=O)CCC2C(=O)O)cc1 (configuration not stated)")
"F"
>>> classassignment("C[N+](C)(N)c1nc(N)c(C#N)c(C#N)c1C#N")
"F"
>>> classassignment("CCN(CC)CCCNC(=O)c1cc2cc(NC(=O)c3cc4cc([N+](=O)[O-])ccc4[nH]3)ccc2[nH]1")
"F"
>>> classassignment("CC(=O)c1cc(I)c(O)c2ncccc12")
"F"
>>> classassignment("Cc1ccc2[nH]c3c(c2c1)C1CCC(C(C)(C)C)CC1C1C(=O)N(c2ccc(Oc4ccccc4)cc2)C(=O)C31 (configuration not stated)")
"F"
>>> classassignment("CCc1ccccc1NC(=O)C(=O)C(C(=O)c1ccc(OC)cc1)c1ccc(OC)cc1 (configuration not stated)")
"F"
>>> classassignment("CN(OC(=O)CC(=O)c1ccccc1)C(=O)Cc1ccccc1")
"F"
>>> classassignment("CCN(CC)CC(C)(C)C(=O)/C=C/c1ccc(C)cc1")
"F"
>>> classassignment("C=C(C)CCOC(c1ccccc1)(c1ccccc1)c1ccccc1")
"F"
>>> classassignment("Brc1ccc2c(c1)-c1nc3c(cc1CC2)CCc1ccc(Br)cc1-3")
"F"
>>> classassignment("CCSc1ncnc2c(C3OC(CO)C(O)C3O)nsc12 (configuration not stated)")
"F"
>>> classassignment("O=C(CC(c1ccccc1)C1C(=O)NC(=S)NC1=O)c1ccc([N+](=O)[O-])cc1 (configuration not stated)")
"F"
>>> classassignment("CCCC1CC(=O)NC(=O)C1C(=O)OC(C)(C)C (configuration not stated)")
"F"
>>> classassignment("CCCCCCCCCCCCCCCCOCC(O)CO (configuration not stated)")
"F"
>>> classassignment("O=C1C(c2c(O)[nH]c3ccc([N+](=O)[O-])cc23)=Nc2ccccc21")
"F"
>>> classassignment("CC1=C(C(=O)Nc2c(C)cccc2C)C(c2ccc3c(c2)OCO3)C(C(=O)Nc2c(C)cccc2C)=C(C)N1")
"F"
>>> classassignment("CCCCC/C=C\\C=C1\\C(=O)C=C[C@@H]1C/C=C\\CCCC(=O)O")
"F"
>>> classassignment("CC(=O)Oc1c2oc3ccc(Cl)cc3c(=O)c2c(O)c2ccsc12")
"F"
>>> classassignment("CC(C)CC(NC(=O)C(O)C(N)Cc1ccccc1)C(=O)O (configuration not stated)")
"F"
>>> classassignment("CC1(C)CC23C4COC(=O)C2CCC1C3CC4=O (configuration not stated)")
"F"
>>> classassignment("O=C(O)CCC1(CCC(=O)O)CCCCCCCCC(CCC(=O)O)(CCC(=O)O)C(=O)C1=O")
"F"

---

system: KM12; assay: NCI tumour cell line growth inhibition, 48 h
Active and inactive are the calls of the source. Cut-off read from the data, not from the text of the source: active = GI50 up to about 1.1 µM and inactive = higher.
# GI50 listing for each entry below
measurementName: GI50

>>> result("COC(=O)c1ccc(S)c(S(=O)(=O)Nc2nc(N)n[nH]2)c1")
"> 100 µM (inactive)"
>>> result("C=CC(=O)NCCSCCCOC1(C(=O)O)CC(O)C(NC(C)=O)C(C(O)C(O)CO)O1 (stereo not given)")
"> 100 µM (inactive)"
>>> result("O=C(O)CCC1(CCC(=O)O)CCCCCCCCC(CCC(=O)O)(CCC(=O)O)C(=O)C1=O")
"> 100 µM (inactive)"
>>> result("O=C1NCc2ccccc2S(=O)(=O)n2cccc21")
"> 100 µM (inactive)"
>>> result("Fc1cccc(F)c1C1SCc2nc3cc(Cl)ccc3n21 (stereo not given)")
"22.8 µM (inactive)"
>>> result("CC(=S)N/C=C1/C(=O)C=C(C)OC1=O")
"> 100 µM (inactive)"
>>> result("Cc1nc2ccccc2c(=O)n1-c1ccccc1F")
"> 100 µM (inactive)"
>>> result("O=C(O)c1nn(-c2ccccc2)nc1-c1nn(-c2ccccc2)nc1C(=O)O")
"> 100 µM (inactive)"
>>> result("O=C1NC2(C=Cc3c(ccc4ccccc34)O2)Oc2ccccc21 (stereo not given)")
"5.18 µM (inactive)"
>>> result("CC(=O)OC[C@]1(C(=O)C(O)c2ccoc2)[C@H](C)CC[C@@]23COC(=O)C2=CCC[C@@H]31 (stereo not given in full)")
"> 10 µM (inactive)"
>>> result("Cc1cc(O)nc2c3c(ccc12)OC(C)(C)C=C3")
"4.28 µM (inactive)"
>>> result("Nc1c2ccccc2nc2ccc(C(=O)Nc3ccc(S(N)(=O)=O)cc3)cc12")
"> 100 µM (inactive)"
>>> result("CC(=O)OCC1OC(n2c3c(cc(C#N)c2=S)CCCCCC3)C(OC(C)=O)C(OC(C)=O)C1OC(C)=O (stereo not given)")
"> 100 µM (inactive)"
>>> result("Brc1ccc2c(c1)-c1nc3c(cc1CC2)CCc1ccc(Br)cc1-3")
"> 100 µM (inactive)"
>>> result("COc1nc(O)c(N)c(NC2OC(CO)C(O)C(O)C2O)n1 (stereo not given)")
"> 100 µM (inactive)"
